assayed.target: STAT6 (Homo sapiens, UniProt P42226)
Construct: These cells express endogenous STAT6; host or cells: HeLa LgBiT clone 4.14 (CRISPR knock-in of HiBiT into the endogenous STAT6 gene)
Sequence (P42226 1-847): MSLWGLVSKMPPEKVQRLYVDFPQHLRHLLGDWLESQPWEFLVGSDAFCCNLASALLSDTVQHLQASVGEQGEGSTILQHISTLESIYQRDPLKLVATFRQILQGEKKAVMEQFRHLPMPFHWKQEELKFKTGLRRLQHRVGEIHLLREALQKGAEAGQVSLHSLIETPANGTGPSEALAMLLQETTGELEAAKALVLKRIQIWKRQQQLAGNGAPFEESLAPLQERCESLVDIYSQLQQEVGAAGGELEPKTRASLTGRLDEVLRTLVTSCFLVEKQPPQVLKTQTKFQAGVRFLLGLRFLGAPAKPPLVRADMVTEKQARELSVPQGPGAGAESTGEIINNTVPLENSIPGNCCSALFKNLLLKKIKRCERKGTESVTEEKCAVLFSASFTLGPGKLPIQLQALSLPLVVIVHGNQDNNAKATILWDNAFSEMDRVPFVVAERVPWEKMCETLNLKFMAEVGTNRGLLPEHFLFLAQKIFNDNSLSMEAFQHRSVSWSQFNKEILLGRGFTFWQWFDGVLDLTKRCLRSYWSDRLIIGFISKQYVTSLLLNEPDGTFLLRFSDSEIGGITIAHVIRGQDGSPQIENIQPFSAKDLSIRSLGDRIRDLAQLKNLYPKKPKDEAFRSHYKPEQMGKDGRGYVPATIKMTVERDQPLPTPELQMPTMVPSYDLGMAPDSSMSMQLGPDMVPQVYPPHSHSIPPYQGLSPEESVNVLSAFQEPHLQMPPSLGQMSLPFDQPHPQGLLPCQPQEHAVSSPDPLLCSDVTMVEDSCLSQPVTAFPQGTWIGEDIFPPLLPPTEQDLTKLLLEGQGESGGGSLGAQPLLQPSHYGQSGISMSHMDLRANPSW
assay.protocol: STAT6 Degrader Assay (HiBiT based, HeLa LgBiT clone 4.14 cells)
Type: cell-based
settings: geometric mean across assay runs and compound batches; DC50 provided for test compounds with >80% Emax; read-out: STAT6 degradation DC50
property: DC50
Include the unit after the number when you answer.

[[record]]
molecule = "CNc1ccn(-c2ccnc3c2cc([C@H](C)N2CC=C(c4c(C)cc(C(=O)N5CCn6nc(CN7CCC(c8ccc(NC9CCC(=O)NC9=O)c(OC)c8)CC7)c(Cl)c6C5)cc4F)CC2)n3C)c(=O)c1 (some centres unmarked) [Example 2g52]"
property = "DC50"
assay_result = "0.8 nM"

[[record]]
molecule = "CNc1cc(=O)n(-c2ccnc3c2cc(CN2CCC(c4c(F)cc(C(=O)N5CCC(CN6CCN(c7ccc(N[C@H]8CCC(=O)NC8=O)cc7F)CC6)CC5)cc4F)CC2)n3C)cc1F (single isomer, unassigned) [Example 2g34]"
property = "DC50"
assay_result = "15.1 nM"

[[record]]
molecule = "CNc1ccn(-c2ccnc3c2cc([C@H](C)N2CC=C(c4c(F)cc(C(=O)N5CCC(CN6CCN(c7ccc(NC8CCC(=O)NC8=O)cc7F)CC6)CC5)cc4F)CC2)n3C)c(=O)c1 (some centres unmarked) [Example 2g104]"
property = "DC50"
assay_result = "3.8 nM"


For every listed record, write down its DC50.
1. CNc1cc(=O)n(-c2ccnc3c2cc([C@H](C)N2CC=C(c4c(C)cc(C(=O)N5CCn6nc(CN7CCC(c8ccc(NC9CCC(=O)NC9=O)c(OC)c8)CC7)cc6C5)cc4F)CC2)n3C)cc1F (some centres unmarked) [Example 2g90]
2. CNc1ccn(-c2ccnc3c2cc([C@H](C)N2CCC(c4c(F)cc(C(=O)N5CCn6nc(CN7CCC(c8ccc(NC9CCC(=O)NC9=O)cc8F)CC7)cc6C5)cc4F)CC2)n3C)c(=O)c1 (some centres unmarked) [Example 2g109]
3. CNc1ccn(-c2ccnc3c2cc([C@H](C)N2CC=C(c4c(C)cc(C(=O)N5CCn6nc(CN7CCC(c8ccc(N[C@@H]9CCC(=O)NC9=O)cc8F)CC7)cc6C5)cc4F)CC2)n3C)c(=O)c1 (single isomer, unassigned) [Example 2g17]
4. CNc1cc(=O)n(-c2ccnc3c2cc([C@H](C)N2CC=C(c4c(C)cc(C(=O)N5CCC(CN6CCN(c7ccc(N[C@H]8CCC(=O)NC8=O)cc7F)CC6)CC5)cc4F)CC2)n3C)cc1F (single isomer, unassigned) [Example 2g92]
5. CNc1ccn(-c2ccnc3c2cc([C@H](C)N2CC=C(c4c(C)cc(C(=O)N5CCC(CN6CCN(c7ncc(N[C@H]8CCC(=O)NC8=O)cc7F)C[C@@H]6C)CC5)cc4F)CC2)n3C)c(=O)c1 (single isomer, unassigned) [Example 2g95]
6. CNc1ccn(-c2ccnc3c2cc([C@H](C)N2CC=C(c4c(C)cc(C(=O)N5CCC(CN6CCN(c7ccc(N[C@H]8CCC(=O)NC8=O)cc7F)CC6)CC5)cc4F)CC2)n3C)c(=O)c1 (single isomer, unassigned) [Example 2g39]
7. CNc1ccn(-c2ccnc3c2cc(CN2CCC(c4c(C)cc(C(=O)N5CCC(CN6CCN(c7ccc(N[C@H]8CCC(=O)NC8=O)cc7F)CC6)CC5)cc4F)CC2)n3C)c(=O)c1 (single isomer, unassigned) [Example 2g62]

Given back:
1: 0.2 nM; 2: 0.4 nM; 3: 0.2 nM; 4: 5.9 nM; 5: 11 nM; 6: 5 nM; 7: 18 nM

Go through the list and state DC50 for each entry.
1. C[C@@H]1CN(c2ccc(NC3CCC(=O)NC3=O)cc2F)CCN1CC1CCN(C(=O)c2ccc(C3CCN([C@@H](C)c4cc5c(-n6ccc7c(c6=O)CCN7)ccnc5n4C)CC3)cc2)CC1 (some centres unmarked) [Example 2f14]
2. CNc1cc(=O)n(-c2ccnc3c2cc(CN2CCC(c4c(F)cc(C(=O)N5CCn6nc(CN7CCC(c8ccc(N[C@H]9CCC(=O)NC9=O)c(OC)c8)CC7)cc6C5)cc4F)CC2)n3C)cc1F (single isomer, unassigned) [Example 2g123]
3. CNc1ccn(-c2ccnc3c2cc([C@H](C)N2CC=C(c4c(C)cc(C(=O)N5CCn6nc(CN7CCC(c8cc(OC)c(NC9CCC(=O)NC9=O)cc8F)CC7)cc6C5)cc4F)CC2)n3C)c(=O)c1 (some centres unmarked) [Example 2g128]

Given back:
1. 7.8 nM
2. 1.8 nM
3. 0.1 nM

For every record below, what is its DC50?
1. CNc1ccn(-c2ccnc3c2cc([C@@H](C)N2CCC(c4c(F)cc(C(=O)N5CCn6nc(CN7CCC(c8ccc(NC9CCC(=O)NC9=O)cc8F)CC7)cc6C5)cc4F)CC2)n3C)c(=O)c1 (some centres unmarked) [Example 2g110]
2. CNc1ccn(-c2ccnc3c2cc([C@H](C)N2CC=C(c4c(C)cc(C(=O)N5CCC(CN6CCN(c7ccc(NC8CCC(=O)NC8=O)cc7F)C[C@H]6C)CC5)cc4F)CC2)n3C)c(=O)c1 (some centres unmarked) [Example 2g46]
3. CNc1cc(=O)n(-c2ccnc3c2cc([C@H](C)N2CC=C(c4c(C)cc(C(=O)N5CCC(CN6CCN(c7ccc(N[C@H]8CCC(=O)NC8=O)cc7F)C[C@H]6C)CC5)cc4F)CC2)n3C)cc1F (single isomer, unassigned) [Example 2g29]

Given back:
1: 10.5 nM; 2: 3.1 nM; 3: 3.6 nM

Asked: Please indicate DC50 recorded for CNc1cc(=O)n(-c2ccnc3c2cc([C@H](C)N2CC=C(c4c(F)cc(C(=O)N5CCC(CN6CCN(c7ccc(NC8CCC(=O)NC8=O)cc7F)CC6)CC5)cc4F)CC2)n3C)cc1F (some centres unmarked) [Example 2g119]
Given back: 14 nM
